Provenance of the data: patent US10479752B2

Quick reference for HPLC Area Percentage among some compounds
- assay info: Chemical and isotopic stability as solutions in DMSO/phosphate buffered saline over 48 hours
- experimental setup: DMSO/PBS solution, 37° C., 24 h
The reply should contain only the number, in %.

q: Which HPLC Area Percentage is reported for this compound? [2H]C([2H])([2H])C(CCCCCCCCCCCCC(CC(=O)O)(C([2H])([2H])[2H])C([2H])([2H])[2H])(CC(=O)O)C([2H])([2H])[2H]
a: 98.5

q: Which HPLC Area Percentage is reported for this compound? [2H]C([2H])(C(=O)O)C(C)(C)CCCCCCCCCCC(C)(C)C([2H])([2H])C(=O)O
a: 95.2

q: Which HPLC Area Percentage is reported for this compound? [2H]C([2H])(C(=O)O)C(C)(C)CCCCCCCCCCCCC(C)(C)C([2H])([2H])C(=O)O
a: 98.4

====

Quick reference for HPLC Area Percentage among some compounds
- assay info: Chemical and isotopic stability as solutions in DMSO/phosphate buffered saline over 48 hours
- experimental setup: Original Sample (before the stability study)
The reply should contain only the number, in %.

These recorded examples may help you get a feel for the data.
1. [2H]C([2H])(C(=O)O)C(C)(C)CCCCCCCCCCCCC(C)(C)C([2H])([2H])C(=O)O [Compound 5]	100.0
2. [2H]C([2H])([2H])C(CCCCCCCCCCCCCCC(C(=O)O)(C([2H])([2H])[2H])C([2H])([2H])[2H])(C(=O)O)C([2H])([2H])[2H] [Compound 8]	100.0

Consider now this further compound.
q: Which HPLC Area Percentage is reported for this compound? [2H]C([2H])([2H])C(CCCCCCCCCCC(CC(=O)O)(C([2H])([2H])[2H])C([2H])([2H])[2H])(CC(=O)O)C([2H])([2H])[2H] [Compound 3]
a: 100.0

====

- assay info: Chemical and isotopic stability as solutions in DMSO/phosphate buffered saline over 48 hours
- experimental setup: DMSO/PBS solution, 37° C., 48 h
Marks after values point to notes of the source that are not given here.
quantity kind: HPLC Assay

1. [2H]C([2H])(C(=O)O)C(C)(C)CCCCCCCCCCCCC(C)(C)C([2H])([2H])C(=O)O	213.8%*

q: Which HPLC Assay is reported for this molecule? [2H]C([2H])([2H])C(CCCCCCCCCCCCC(CC(=O)O)(C([2H])([2H])[2H])C([2H])([2H])[2H])(CC(=O)O)C([2H])([2H])[2H]
a: 59.6%

q: Which HPLC Assay is reported for this molecule? [2H]C([2H])([2H])C(CCCCCCCCCCC(C([2H])([2H])[2H])(C([2H])([2H])[2H])C([2H])([2H])C(=O)O)(C([2H])([2H])[2H])C([2H])([2H])C(=O)O
a: 86.3%

q: Which HPLC Assay is reported for this molecule? [2H]C([2H])([2H])C(CCCCCCCCCCCCCCC(C(=O)O)(C([2H])([2H])[2H])C([2H])([2H])[2H])(C(=O)O)C([2H])([2H])[2H]
a: 47.7%

q: Which HPLC Assay is reported for this molecule? [2H]C([2H])([2H])C(CCCCCCCCCCCCC(C([2H])([2H])[2H])(C([2H])([2H])[2H])C([2H])([2H])C(=O)O)(C([2H])([2H])[2H])C([2H])([2H])C(=O)O
a: 77.6%

q: Which HPLC Assay is reported for this molecule? [2H]C([2H])([2H])C(CCCCCCCCCCC(CC(=O)O)(C([2H])([2H])[2H])C([2H])([2H])[2H])(CC(=O)O)C([2H])([2H])[2H]
a: 50.2%

q: Which HPLC Assay is reported for this molecule? [2H]C([2H])([2H])C(CCCCCCCCCCCCC(C(=O)O)(C([2H])([2H])[2H])C([2H])([2H])[2H])(C(=O)O)C([2H])([2H])[2H]
a: 82.2%

====

- assay info: Comparative oral bioavailability / pharmacokinetic study, single intravenous and oral administration
- Format: in vivo
- experimental setup: rat, 50 mg/kg po dose, Mean CV (%)
quantity kind: tmax

1. [2H]C([2H])([2H])C(CCCCCCCCCCC(C([2H])([2H])[2H])(C([2H])([2H])[2H])C([2H])([2H])C(=O)O)(C([2H])([2H])[2H])C([2H])([2H])C(=O)O	4 (0%) h

q: Which tmax is reported for this compound? CC(C)(CCCCCCCCCCCCC(C)(C)C(=O)O)C(=O)O [Compound 7″, reference compound]
a: 8 (50.0%) h

q: Which tmax is reported for this compound? CC(C)(CCCCCCCCCCC(C)(C)CC(=O)O)CC(=O)O [Compound 1″, reference compound]
a: 3.5 (79.5%) h

q: Which tmax is reported for this compound? [2H]C([2H])([2H])C(CCCCCCCCCCCCC(C(=O)O)(C([2H])([2H])[2H])C([2H])([2H])[2H])(C(=O)O)C([2H])([2H])[2H]
a: 4 (0%) h

====

- assay info: Chemical and isotopic stability as solutions in DMSO/phosphate buffered saline over 48 hours
- experimental setup: DMSO/PBS solution, 37° C., 0 h
Quick reference for GC/MS IE (isotopic enrichment) among some compounds
The reply should contain only the number, in %.

These recorded examples may help you get a feel for the data.
1) [2H]C([2H])(C(=O)O)C(C)(C)CCCCCCCCCCC(C)(C)C([2H])([2H])C(=O)O [Compound 2]	97.9
2) [2H]C([2H])(C(=O)O)C(C)(C)CCCCCCCCCCCCC(C)(C)C([2H])([2H])C(=O)O [Compound 5]	96.3

Consider now this further compound.
q: Which GC/MS IE (isotopic enrichment) is reported for this compound? [2H]C([2H])([2H])C(CCCCCCCCCCC(C([2H])([2H])[2H])(C([2H])([2H])[2H])C([2H])([2H])C(=O)O)(C([2H])([2H])[2H])C([2H])([2H])C(=O)O [Compound 1]
a: 98.3

====

- assay info: Chemical and isotopic stability as solutions in DMSO/phosphate buffered saline over 48 hours
- experimental setup: DMSO/PBS solution, 37° C., 0 h
Quick reference for HPLC Area Percentage among some compounds
The reply should contain only the number, in %.

1) [2H]C([2H])([2H])C(CCCCCCCCCCCCC(C([2H])([2H])[2H])(C([2H])([2H])[2H])C([2H])([2H])C(=O)O)(C([2H])([2H])[2H])C([2H])([2H])C(=O)O	97.2
2) [2H]C([2H])([2H])C(CCCCCCCCCCCCC(C(=O)O)(C([2H])([2H])[2H])C([2H])([2H])[2H])(C(=O)O)C([2H])([2H])[2H]	96.8
3) [2H]C([2H])([2H])C(CCCCCCCCCCC(CC(=O)O)(C([2H])([2H])[2H])C([2H])([2H])[2H])(CC(=O)O)C([2H])([2H])[2H]	98.0

q: Which HPLC Area Percentage is reported for this compound? [2H]C([2H])([2H])C(CCCCCCCCCCC(C([2H])([2H])[2H])(C([2H])([2H])[2H])C([2H])([2H])C(=O)O)(C([2H])([2H])[2H])C([2H])([2H])C(=O)O
a: 98.1

q: Which HPLC Area Percentage is reported for this compound? [2H]C([2H])(C(=O)O)C(C)(C)CCCCCCCCCCCCC(C)(C)C([2H])([2H])C(=O)O
a: 98.4

====

- assay info: Chemical and isotopic stability as solutions in DMSO/phosphate buffered saline over 48 hours
- experimental setup: DMSO/PBS solution, 37° C., 2 h
quantity kind: HPLC Assay (%)
The reply should contain only the number, in %.

These recorded examples may help you get a feel for the data.
1) [2H]C([2H])([2H])C(CCCCCCCCCCCCC(C(=O)O)(C([2H])([2H])[2H])C([2H])([2H])[2H])(C(=O)O)C([2H])([2H])[2H]	101.6
2) [2H]C([2H])([2H])C(CCCCCCCCCCC(C([2H])([2H])[2H])(C([2H])([2H])[2H])C([2H])([2H])C(=O)O)(C([2H])([2H])[2H])C([2H])([2H])C(=O)O	64.5
3) [2H]C([2H])([2H])C(CCCCCCCCCCCCC(C([2H])([2H])[2H])(C([2H])([2H])[2H])C([2H])([2H])C(=O)O)(C([2H])([2H])[2H])C([2H])([2H])C(=O)O	65.9
4) [2H]C([2H])([2H])C(CCCCCCCCCCC(CC(=O)O)(C([2H])([2H])[2H])C([2H])([2H])[2H])(CC(=O)O)C([2H])([2H])[2H]	38.4
5) [2H]C([2H])([2H])C(CCCCCCCCCCCCCCC(C(=O)O)(C([2H])([2H])[2H])C([2H])([2H])[2H])(C(=O)O)C([2H])([2H])[2H]	68.7

q: Which HPLC Assay is reported for this molecule? [2H]C([2H])(C(=O)O)C(C)(C)CCCCCCCCCCCCC(C)(C)C([2H])([2H])C(=O)O
a: 44.6

q: Which HPLC Assay is reported for this molecule? [2H]C([2H])(C(=O)O)C(C)(C)CCCCCCCCCCC(C)(C)C([2H])([2H])C(=O)O
a: 65.1

q: Which HPLC Assay is reported for this molecule? [2H]C([2H])([2H])C(CCCCCCCCCCCCC(CC(=O)O)(C([2H])([2H])[2H])C([2H])([2H])[2H])(CC(=O)O)C([2H])([2H])[2H]
a: 33.1
